All values here come from patent US6653476B2.

metric: melting point

Reference set (3 entries):
compound="CCC(=O)Oc1ccc(-c2c(Cl)c(CN3C(=O)CCC3=O)nc3sc4c(c23)CCS(=O)(=O)C4)cc1 [Example 65]" value="268 to 269 °C"
compound="CC(=O)Oc1ccc(-c2c(Cl)c(CN3C(=O)CCC3=O)nc3sc4c(c23)CCS(=O)(=O)C4)cc1 [Example 64]" value="272 to 273 °C"
compound="CC(C)(C)OC(=O)COc1ccc(-c2c(Cl)c(CN3C(=O)CCC3=O)nc3sc4c(c23)CCS(=O)(=O)C4)cc1 [Example 114]" value="204 to 205 °C"

input: Consider the compound CN(C)CC(=O)Oc1ccc(-c2c(Cl)c(CN3C(=O)CCC3=O)nc3sc4c(c23)CCS(=O)(=O)C4)cc1.Cl and give its measured melting point.
output: 199 to 200 °C

input: Record request: melting point value, item CC(C)(C)OC(=O)COc1ccc(-c2c(Cl)c(CN3C(=O)CCC3=O)nc3sc4c(c23)CCSC4)cc1 [Example 112]
output: 191 to 192 °C
